Taken from patent US20260258124A1.

Molecular target: T1, CD117 on wild-type cells (TF-1 cells, HSPCs, HSCs) (human, UniProt P10721 26-976)
T1 construct: also called KIT; c-Kit
T1 sequence (P10721 26-976 limits assumed): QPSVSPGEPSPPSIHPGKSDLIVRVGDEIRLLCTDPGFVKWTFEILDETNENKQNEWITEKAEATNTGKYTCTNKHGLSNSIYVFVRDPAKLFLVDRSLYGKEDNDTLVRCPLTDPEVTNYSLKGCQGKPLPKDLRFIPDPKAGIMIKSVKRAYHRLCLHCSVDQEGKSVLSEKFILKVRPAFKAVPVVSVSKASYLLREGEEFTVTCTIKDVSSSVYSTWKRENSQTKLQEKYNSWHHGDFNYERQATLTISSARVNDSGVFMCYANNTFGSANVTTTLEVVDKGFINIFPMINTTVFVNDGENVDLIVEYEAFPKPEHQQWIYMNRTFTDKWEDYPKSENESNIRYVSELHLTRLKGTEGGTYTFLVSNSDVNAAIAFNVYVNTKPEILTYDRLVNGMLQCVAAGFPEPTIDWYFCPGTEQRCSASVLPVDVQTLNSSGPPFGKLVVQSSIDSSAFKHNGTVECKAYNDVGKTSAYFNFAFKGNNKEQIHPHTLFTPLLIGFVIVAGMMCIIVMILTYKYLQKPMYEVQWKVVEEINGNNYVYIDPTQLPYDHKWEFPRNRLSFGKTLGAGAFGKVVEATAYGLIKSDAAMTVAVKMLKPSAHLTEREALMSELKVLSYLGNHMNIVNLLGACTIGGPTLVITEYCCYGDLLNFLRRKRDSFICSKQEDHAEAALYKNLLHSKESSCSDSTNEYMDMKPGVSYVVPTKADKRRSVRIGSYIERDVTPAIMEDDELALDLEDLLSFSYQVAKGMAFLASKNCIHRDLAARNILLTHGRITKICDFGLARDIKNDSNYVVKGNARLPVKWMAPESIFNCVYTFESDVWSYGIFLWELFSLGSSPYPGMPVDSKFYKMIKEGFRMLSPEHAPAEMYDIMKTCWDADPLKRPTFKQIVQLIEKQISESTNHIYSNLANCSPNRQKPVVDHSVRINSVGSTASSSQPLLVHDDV
Assay: flow cytometry on TF-1 wild-type cells, Fc receptors blocked, goat anti-human IgG Alexa Fluor 488 as secondary antibody
quantity.name: EC50 (read off the curve)

Field EC50 (read off the curve) (entry Piz Bernina (antibody, V domains shown, IgG; also called VH1/VL1.17) VH: QVQLVQSGAEVKKPGASVKVSCKASGYTFTSYNMHWVRQAPGQGLEWMGVIYSGNGDTSYNQKFKGRVTMTTDTSTSTAYMELRSLTSDDTAVYYCARERDTRFGNWGQGTLVTVSA VL: EIVLTQSPSSLSASVGDRVTITCRASESVDIYGESFMHWYQQKPGKAPKLLIYLASNLESGVPSRFSGSGSGTDFTLTISSLQPEDFATYYCQQNNEEPYTFGQGTKLEIKR ) reads ~0.02 µg/mL

Field EC50 (read off the curve) (entry Allalinhorn (antibody, V domains shown, IgG; also called VH1/VL1.19; Allaninhorn) VH: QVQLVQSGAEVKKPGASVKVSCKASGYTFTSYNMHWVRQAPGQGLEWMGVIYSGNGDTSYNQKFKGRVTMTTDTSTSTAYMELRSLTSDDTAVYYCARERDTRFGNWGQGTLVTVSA VL: EIVLTQSPSSLSASVGDRVTITCRASESVDIYGESFMHWYQQKPGKAPKLLIYLASNLESGVPSRFSGSGSGTDFTLTISSLQPEDFATYYCQQNKEEPYTFGQGTKLEIKR ) reads ~0.02 µg/mL

Field EC50 (read off the curve) (entry Piz Roseg (antibody, V domains shown, IgG; also called VH1/VL1.28) VH: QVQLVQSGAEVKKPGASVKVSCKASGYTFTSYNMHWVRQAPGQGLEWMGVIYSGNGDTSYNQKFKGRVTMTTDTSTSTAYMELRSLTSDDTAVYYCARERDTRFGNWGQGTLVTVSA VL: EIVLTQSPSSLSASVGDRVTITCRASESVDIYGSSFMHWYQQKPGKAPKLLIYKASNLESGVPSRFSGSGSGTDFTLTISSLQPEDFATYYCQQNKEEPYTFGQGTKLEIKR ) reads ~0.2 µg/mL

Field EC50 (read off the curve) (entry Piz Argient (antibody, V domains shown, IgG; also called VH1/VL1.27) VH: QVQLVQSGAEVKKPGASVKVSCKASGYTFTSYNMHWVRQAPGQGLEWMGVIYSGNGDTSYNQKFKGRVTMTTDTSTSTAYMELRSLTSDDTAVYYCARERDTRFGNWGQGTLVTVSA VL: EIVLTQSPSSLSASVGDRVTITCRASESVDIYGHSFMHWYQQKPGKAPKLLIYLASNLESGVPSRFSGSGSGTDFTLTISSLQPEDFATYYCQQNKEEPYTFGQGTKLEIKR ) reads ~0.1 µg/mL

Field EC50 (read off the curve) (entry Bietschhorn (antibody, V domains shown, IgG; also called VH1/VL1.29) VH: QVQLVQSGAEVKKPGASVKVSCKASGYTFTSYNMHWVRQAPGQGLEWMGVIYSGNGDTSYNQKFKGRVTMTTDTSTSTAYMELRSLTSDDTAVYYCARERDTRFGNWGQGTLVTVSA VL: EIVLTQSPSSLSASVGDRVTITCRASESVDIYGESFMHWYQQKPGKAPKLLIYLASNLESGVPSRFSGSGSGTDFTLTISSLQPEDFATYYCQQNREEPYTFGQGTKLEIKR ) reads ~0.04 µg/mL
